# Tgt: human melanocortin-4 receptor (human, UniProt P32245 1-332)
# Sequence (P32245 whole entry): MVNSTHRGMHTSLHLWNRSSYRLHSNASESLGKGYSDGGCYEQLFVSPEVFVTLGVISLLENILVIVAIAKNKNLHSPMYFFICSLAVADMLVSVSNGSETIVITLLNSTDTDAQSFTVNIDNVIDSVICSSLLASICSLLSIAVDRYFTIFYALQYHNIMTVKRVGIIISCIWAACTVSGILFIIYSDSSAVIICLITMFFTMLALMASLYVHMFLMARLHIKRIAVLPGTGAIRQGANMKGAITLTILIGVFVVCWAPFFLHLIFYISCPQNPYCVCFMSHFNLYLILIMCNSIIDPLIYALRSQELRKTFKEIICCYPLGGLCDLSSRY
# Assay info: cell-based or functional assay
Positions of bridges follow the written chain, without caps; N, C: chain ends. Non-standard residues stand in square brackets, D forms with d. dPhe(2-CF3) = N[C@H](Cc1ccccc1C(F)(F)F)C(=O)O; dPhe(4-CN) = N#Cc1ccc(C[C@@H](N)C(=O)O)cc1; dPhe(3-Cl) = N[C@H](Cc1cccc(Cl)c1)C(=O)O; dPhe(2-Cl) = N[C@H](Cc1ccccc1Cl)C(=O)O; dPhe(4-F) = N[C@H](Cc1ccc(F)cc1)C(=O)O; Orn = NCCC[C@H](N)C(=O)O
Readout name: Intrinsic Activity, cAMP, 10 ng/mL Doxycycline (%)
Give bare numbers, in %.

• Ac-REA[dPhe(4-CN)]RW[Orn]-NH2 (lactam 2-7; SMILES CC(=O)N[C@@H](CCCNC(=N)N)C(=O)N[C@H]1CCC(=O)NCCC[C@@H](C(N)=O)NC(=O)[C@H](Cc2c[nH]c3ccccc23)NC(=O)[C@H](CCCNC(=N)N)NC(=O)[C@@H](Cc2ccc(C#N)cc2)NC(=O)[C@H](C)NC1=O, also called No. 41) [Ac-Arg-cyclo(Glu-Ala-D-Phe(4-CN)-Arg-Trp-Orn)-NH2] = 84
• RDPXRWK (N-terminal Ac; D-Phe(2-F) 4; lactam Asp 2-Lys 7; C-terminal NH2) [Ac-Arg-cyclo(Asp-Pro-D-Phe(2-F)-Arg-Trp-Lys)-NH2] = 100
• Ac-RES[dPhe(3-Cl)]RW[Orn]-NH2 (lactam 2-7, also called No. 35) [Ac-Arg-cyclo(Glu-Ser-D-Phe(3-Cl)-Arg-Trp-Orn)-NH2] = 84
• Ac-RER[dPhe(3-Cl)]RW[Orn]-NH2 (lactam 2-7; SMILES CC(=O)N[C@@H](CCCNC(=N)N)C(=O)N[C@H]1CCC(=O)NCCC[C@@H](C(N)=O)NC(=O)[C@H](Cc2c[nH]c3ccccc23)NC(=O)[C@H](CCCNC(=N)N)NC(=O)[C@@H](Cc2cccc(Cl)c2)NC(=O)[C@H](CCCNC(=N)N)NC1=O, also called No. 99) [Ac-Arg-cyclo(Glu-Arg-D-Phe(3-Cl)-Arg-Trp-Orn)-NH2] = 94
• Ac-REQ[dPhe(2-CF3)]RW[Orn]-NH2 (lactam 2-7, also called No. 114) [Ac-Arg-cyclo(Glu-Gln-D-Phe(2-CF3)-Arg-Trp-Orn)-NH2] = 117

Record Intrinsic Activity, cAMP, 10 ng/mL Doxycycline per entry; entries follow.
1. Ac-RES[dPhe(2-Cl)]RW[Orn]-NH2 (lactam 2-7; SMILES CC(=O)N[C@@H](CCCNC(=N)N)C(=O)N[C@H]1CCC(=O)NCCC[C@@H](C(N)=O)NC(=O)[C@H](Cc2c[nH]c3ccccc23)NC(=O)[C@H](CCCNC(=N)N)NC(=O)[C@@H](Cc2ccccc2Cl)NC(=O)[C@H](CO)NC1=O, also called No. 31) [Ac-Arg-cyclo(Glu-Ser-D-Phe(2-Cl)-Arg-Trp-Orn)-NH2]
2. Ac-REP[dPhe(4-F)]RW[Orn]-OH (lactam 2-7; SMILES CC(=O)N[C@@H](CCCNC(=N)N)C(=O)N[C@H]1CCC(=O)NCCC[C@@H](C(=O)O)NC(=O)[C@H](Cc2c[nH]c3ccccc23)NC(=O)[C@H](CCCNC(=N)N)NC(=O)[C@@H](Cc2ccc(F)cc2)NC(=O)[C@@H]2CCCN2C1=O) [Ac-Arg-cyclo(Glu-Pro-D-Phe(4-F)-Arg-Trp-Orn)-OH]

Reply |
1: 98; 2: 97
